system: CLZ3 (HCA2 human fibroblast dual HR-NHEJ reporter); test: HR repair efficiency (tdTomato+ cells) relative to control (log10 fold); higher = more homologous recombination; details: 5 µM; doxycycline 0.5 ug/mL
Examples of compounds with documented HR repair efficiency (log10) follow.
Lab note: jot the number down without any unit.

// known answers, use as guide
Compound: CCOC(=O)/C=C/c1ccc(O)c(O)c1 [Ethyl Caffeate]
System Name: CLZ3 (HCA2 human fibroblast dual HR-NHEJ reporter)
Observed Measurement: 0.0777
//
Compound: C[C@@H]1O[C@@H](OC[C@H]2O[C@@H](OCCc3ccc(O)c(O)c3)[C@H](O)[C@@H](O[C@@H]3O[C@@H](C)[C@H](O)[C@@H](O)[C@H]3O)[C@@H]2OC(=O)/C=C/c2ccc(O)c(O)c2)[C@H](O)[C@H](O)[C@H]1O [Poliumoside]
System Name: CLZ3 (HCA2 human fibroblast dual HR-NHEJ reporter)
Observed Measurement: 0.0718
//
Compound: C=C[C@H]1[C@H](O[C@@H]2O[C@H](CO)[C@@H](O)[C@H](O)[C@H]2O)OC=C(C(=O)OC)[C@H]1CC(=O)O
System Name: CLZ3 (HCA2 human fibroblast dual HR-NHEJ reporter);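 note: compound given one day before doxycycline, which switches on I-SceI endonuclease expression to create double-strand breaks within the integrated reporter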
Observed Measurement: -0.19

# evaluate next
HR repair efficiency (log10) in this record for C=C1CCC[C@]2(C)C[C@]3(O)OC(=O)C(C)=C3C[C@@H]12 [Atractylenolide Iii] : 0.0542

Provenance of the data: the supplement of paper PMC7380943
